The reported numbers originate from ChEMBL document CHEMBL1201862.

The compounds listed here are annotated with their EC50.
System Tested: Peroxisome proliferator-activated receptor gamma/Nuclear receptor coactivator 2 (Homo sapiens, UniProt P37231);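 also: agonist potency for raising coactivator recruitment to the receptor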
Sequence (P37231 whole entry): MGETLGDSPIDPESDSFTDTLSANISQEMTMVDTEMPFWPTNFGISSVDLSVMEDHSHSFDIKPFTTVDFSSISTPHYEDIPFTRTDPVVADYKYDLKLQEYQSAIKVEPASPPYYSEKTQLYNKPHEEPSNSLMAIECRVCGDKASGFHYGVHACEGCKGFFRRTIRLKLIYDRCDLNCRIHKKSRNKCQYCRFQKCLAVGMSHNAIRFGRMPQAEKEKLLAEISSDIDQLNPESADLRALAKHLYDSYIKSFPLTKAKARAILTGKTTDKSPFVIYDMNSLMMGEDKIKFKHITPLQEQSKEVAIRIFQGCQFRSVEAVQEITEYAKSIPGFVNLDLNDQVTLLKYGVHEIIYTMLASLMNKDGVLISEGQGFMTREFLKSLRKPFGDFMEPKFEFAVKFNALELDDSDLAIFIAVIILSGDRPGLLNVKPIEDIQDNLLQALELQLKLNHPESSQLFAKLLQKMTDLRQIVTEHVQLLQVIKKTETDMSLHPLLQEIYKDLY
Sequence (Q15596 whole entry, further chain): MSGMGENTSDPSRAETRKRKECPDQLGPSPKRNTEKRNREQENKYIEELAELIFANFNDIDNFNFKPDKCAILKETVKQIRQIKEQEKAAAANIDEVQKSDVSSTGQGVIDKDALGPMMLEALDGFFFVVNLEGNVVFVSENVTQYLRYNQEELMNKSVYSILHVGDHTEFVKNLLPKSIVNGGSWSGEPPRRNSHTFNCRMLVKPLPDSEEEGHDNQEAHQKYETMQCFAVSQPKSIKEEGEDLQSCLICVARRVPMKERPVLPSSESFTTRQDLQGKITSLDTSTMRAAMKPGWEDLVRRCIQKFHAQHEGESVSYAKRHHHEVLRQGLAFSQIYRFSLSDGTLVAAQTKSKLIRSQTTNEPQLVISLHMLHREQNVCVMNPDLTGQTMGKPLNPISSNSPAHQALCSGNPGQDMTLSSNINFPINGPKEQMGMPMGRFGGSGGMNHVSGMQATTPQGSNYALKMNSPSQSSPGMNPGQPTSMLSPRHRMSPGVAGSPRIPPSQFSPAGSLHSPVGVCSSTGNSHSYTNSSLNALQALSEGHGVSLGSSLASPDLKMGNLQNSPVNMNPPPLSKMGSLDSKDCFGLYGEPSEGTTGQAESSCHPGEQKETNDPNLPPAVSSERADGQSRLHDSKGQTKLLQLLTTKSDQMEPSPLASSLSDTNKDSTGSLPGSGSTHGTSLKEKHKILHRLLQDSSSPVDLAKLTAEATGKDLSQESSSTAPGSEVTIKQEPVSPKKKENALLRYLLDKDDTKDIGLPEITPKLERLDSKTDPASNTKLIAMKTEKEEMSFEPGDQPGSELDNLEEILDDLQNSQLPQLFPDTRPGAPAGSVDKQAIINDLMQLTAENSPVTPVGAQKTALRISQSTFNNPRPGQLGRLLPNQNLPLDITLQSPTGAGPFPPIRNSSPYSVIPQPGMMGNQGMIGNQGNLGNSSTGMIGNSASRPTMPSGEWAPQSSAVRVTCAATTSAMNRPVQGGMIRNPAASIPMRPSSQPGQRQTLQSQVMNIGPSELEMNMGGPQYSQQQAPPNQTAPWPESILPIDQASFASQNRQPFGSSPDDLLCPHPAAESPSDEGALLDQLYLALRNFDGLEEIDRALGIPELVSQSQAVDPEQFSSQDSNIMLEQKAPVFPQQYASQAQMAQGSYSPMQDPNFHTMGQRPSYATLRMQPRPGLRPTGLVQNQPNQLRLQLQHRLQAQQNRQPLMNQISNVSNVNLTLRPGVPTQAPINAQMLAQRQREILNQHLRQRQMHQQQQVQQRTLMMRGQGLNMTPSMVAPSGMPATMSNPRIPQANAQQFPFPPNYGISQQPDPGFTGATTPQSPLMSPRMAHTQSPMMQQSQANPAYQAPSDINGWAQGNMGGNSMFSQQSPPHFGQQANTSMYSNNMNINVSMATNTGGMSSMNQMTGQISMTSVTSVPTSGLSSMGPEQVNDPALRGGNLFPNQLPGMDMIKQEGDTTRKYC
Type: functional

Chem Smiles: CC(C)CCNC(=O)NC(=O)COC(=O)/C=C/c1cnc2ccccc2n1
Result: 32 µM (not active)
--
Chem Smiles: C=CCN1C=CC(=C/C=C(/C#N)C(=O)OCC)C=C1
Result: > 79.4 µM (not active)
--
Chem Smiles: O=C(Nc1ccc2oc(-c3ccc4ccccc4c3)nc2c1)c1ccc2c(c1)OCCO2
Result: 22.1 µM (not active)

Consider now this further compound.
input: Query (compound): O=C(Nc1ccc(N2CCCCC2)cc1)c1cncc(Br)c1 ; field requested: EC50
output: > 79.4 µM (not active)
